Biological target: MalA wild-type (Saccharolobus solfataricus, UniProt D0KQM8)
Sequence (D0KQM8 1-700): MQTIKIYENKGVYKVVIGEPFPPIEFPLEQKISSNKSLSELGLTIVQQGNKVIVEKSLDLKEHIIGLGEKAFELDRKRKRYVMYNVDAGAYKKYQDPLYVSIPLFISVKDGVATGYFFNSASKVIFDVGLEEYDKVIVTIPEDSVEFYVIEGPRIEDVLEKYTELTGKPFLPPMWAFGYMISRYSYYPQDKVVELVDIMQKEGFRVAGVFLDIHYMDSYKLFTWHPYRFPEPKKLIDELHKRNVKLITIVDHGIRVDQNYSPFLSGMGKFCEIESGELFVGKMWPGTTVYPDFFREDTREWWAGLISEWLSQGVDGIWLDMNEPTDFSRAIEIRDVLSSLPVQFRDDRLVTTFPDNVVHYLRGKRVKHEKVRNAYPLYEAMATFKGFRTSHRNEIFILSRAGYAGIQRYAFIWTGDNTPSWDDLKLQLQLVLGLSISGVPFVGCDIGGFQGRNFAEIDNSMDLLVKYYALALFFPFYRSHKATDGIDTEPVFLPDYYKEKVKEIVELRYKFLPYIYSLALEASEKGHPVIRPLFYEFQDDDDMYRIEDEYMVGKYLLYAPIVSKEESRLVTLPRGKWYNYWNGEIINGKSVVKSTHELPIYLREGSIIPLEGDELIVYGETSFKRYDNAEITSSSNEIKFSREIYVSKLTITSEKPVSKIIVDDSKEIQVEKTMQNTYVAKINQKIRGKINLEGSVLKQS
pIC50: −log10 of the molar value.
Listed compounds paired with reported pIC50
assay_readout: pIC50

INSERT INTO measurements (compound, assay_readout, val) VALUES
  ('OC[C@H]1NC[C@H](O)[C@@H](O)[C@@H]1O [1-DNJ, 1-deoxynojirimycin]', 'pIC50', 7.00),
  ('C[C@H]1O[C@H](O[C@H]2[C@H](O)[C@@H](O)[C@@H](O[C@H]3[C@H](O)[C@@H](O)C(O)O[C@@H]3CO)O[C@@H]2CO)[C@H](O)[C@@H](O)[C@@H]1N[C@H]1C=C(CO)[C@@H](O)[C@H](O)[C@H]1O (stereo partly drawn) [Acarbose, acarbose]', 'pIC50', 4.69),
  ('CCCCN1C[C@H](O)[C@@H](O)[C@H](O)[C@H]1CO [NB-DNJ, N-butyldeoxynojirimycin]', 'pIC50', 5.77);

* * *

Biological target: MalA R400G (Saccharolobus solfataricus, UniProt D0KQM8, R400G)
Experiment: Inhibition kinetics
assay_readout: Ki

INSERT INTO assay_data (compound, experimental_system, assay_readout, val) VALUES
  ('CCCCN1C[C@H](O)[C@@H](O)[C@H](O)[C@H]1CO [NB-DNJ, N-butyldeoxynojirimycin]', 'MalA R400G (Saccharolobus solfataricus, UniProt D0KQM8, R400G)', 'Ki', '0.13 µM'),
  ('OC[C@H]1NC[C@H](O)[C@@H](O)[C@@H]1O [1-DNJ, 1-deoxynojirimycin]', 'MalA R400G (Saccharolobus solfataricus, UniProt D0KQM8, R400G)', 'Ki', '1.4 µM'),
  ('C[C@H]1O[C@H](O[C@H]2[C@H](O)[C@@H](O)[C@@H](O[C@H]3[C@H](O)[C@@H](O)C(O)O[C@@H]3CO)O[C@@H]2CO)[C@H](O)[C@@H](O)[C@@H]1N[C@H]1C=C(CO)[C@@H](O)[C@H](O)[C@H]1O (stereo partly drawn) [Acarbose, acarbose]', 'MalA R400G (Saccharolobus solfataricus, UniProt D0KQM8, R400G)', 'Ki', '23 µM');

* * *

Biological target: MalA R400H (Saccharolobus solfataricus, UniProt D0KQM8, R400H)
Assay: Inhibition kinetics
pKi: −log10 of the molar value.
assay_readout: pKi

INSERT INTO measurements (compound, assay_readout, val) VALUES
  ('OC[C@H]1NC[C@H](O)[C@@H](O)[C@@H]1O [1-DNJ, 1-deoxynojirimycin]', 'pKi', 5.66),
  ('CCCCN1C[C@H](O)[C@@H](O)[C@H](O)[C@H]1CO [NB-DNJ, N-butyldeoxynojirimycin]', 'pKi', 6.15),
  ('C[C@H]1O[C@H](O[C@H]2[C@H](O)[C@@H](O)[C@@H](O[C@H]3[C@H](O)[C@@H](O)C(O)O[C@@H]3CO)O[C@@H]2CO)[C@H](O)[C@@H](O)[C@@H]1N[C@H]1C=C(CO)[C@@H](O)[C@H](O)[C@H]1O (stereo partly drawn) [Acarbose, acarbose]', 'pKi', 4.14);

* * *

Target: MalA R400H (Saccharolobus solfataricus, UniProt D0KQM8, R400H)
Sequence (D0KQM8 1-700 R400H): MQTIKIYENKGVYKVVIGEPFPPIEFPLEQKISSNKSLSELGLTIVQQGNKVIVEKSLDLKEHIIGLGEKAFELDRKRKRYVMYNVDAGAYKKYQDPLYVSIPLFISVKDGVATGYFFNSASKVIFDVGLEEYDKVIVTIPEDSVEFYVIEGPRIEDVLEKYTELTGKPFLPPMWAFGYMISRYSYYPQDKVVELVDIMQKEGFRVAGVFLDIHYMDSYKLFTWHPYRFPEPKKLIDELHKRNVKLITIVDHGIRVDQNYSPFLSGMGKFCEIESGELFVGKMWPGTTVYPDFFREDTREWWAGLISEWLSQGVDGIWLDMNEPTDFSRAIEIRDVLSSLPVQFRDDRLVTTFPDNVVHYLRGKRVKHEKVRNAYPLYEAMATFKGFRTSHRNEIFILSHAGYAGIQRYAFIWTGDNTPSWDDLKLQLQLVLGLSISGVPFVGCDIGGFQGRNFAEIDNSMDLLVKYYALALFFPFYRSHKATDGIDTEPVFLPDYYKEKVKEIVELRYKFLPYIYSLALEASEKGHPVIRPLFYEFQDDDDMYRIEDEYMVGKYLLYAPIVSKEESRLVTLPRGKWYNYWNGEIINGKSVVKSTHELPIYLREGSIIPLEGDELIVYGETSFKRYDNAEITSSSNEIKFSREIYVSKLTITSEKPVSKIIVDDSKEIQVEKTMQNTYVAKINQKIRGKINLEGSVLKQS
Experiment: IC50 determination on pNP-α-D-Glc, MalA R400H
Reported IC50 by item:
assay_readout: IC50 (µM)

INSERT INTO results (compound, val) VALUES
  ('OC[C@H]1NC[C@H](O)[C@@H](O)[C@@H]1O', 30),
  ('C[C@H]1O[C@H](O[C@H]2[C@H](O)[C@@H](O)[C@@H](O[C@H]3[C@H](O)[C@@H](O)C(O)O[C@@H]3CO)O[C@@H]2CO)[C@H](O)[C@@H](O)[C@@H]1N[C@H]1C=C(CO)[C@@H](O)[C@H](O)[C@H]1O (stereo partly drawn)', 830),
  ('CCCCN1C[C@H](O)[C@@H](O)[C@H](O)[C@H]1CO', 5.7);

* * *

Listing: pIC50 of selected compounds
Target: MalA R400G (Saccharolobus solfataricus, UniProt D0KQM8, R400G)
Assay: IC50 determination on pNP-α-D-Glc, MalA R400G
pIC50: −log10 of the molar value.
assay_readout: pIC50

INSERT INTO assay_data (compound, assay_readout, val) VALUES
  ('CCCCN1C[C@H](O)[C@@H](O)[C@H](O)[C@H]1CO [NB-DNJ, N-butyldeoxynojirimycin]', 'pIC50', 4.26),
  ('OC[C@H]1NC[C@H](O)[C@@H](O)[C@@H]1O [1-DNJ, 1-deoxynojirimycin]', 'pIC50', 3.65),
  ('C[C@H]1O[C@H](O[C@H]2[C@H](O)[C@@H](O)[C@@H](O[C@H]3[C@H](O)[C@@H](O)C(O)O[C@@H]3CO)O[C@@H]2CO)[C@H](O)[C@@H](O)[C@@H]1N[C@H]1C=C(CO)[C@@H](O)[C@H](O)[C@H]1O (stereo partly drawn) [Acarbose, acarbose]', 'pIC50', 3.04);
